Entries annotated with measured logP
observed.property: logP

{"compound": "NNC=O", "reading": -2.05}
{"compound": "O=C(OC(=O)c1ccccc1)c1ccccc1", "reading": 2.26}
{"compound": "CN(C)C(=O)N(C)N=O", "reading": 0.36}
{"compound": "COP(=O)(NC(C)=O)SC (configuration not stated)", "reading": -0.85}
{"compound": "Nc1ccccc1Cl", "reading": 1.9}
{"compound": "CC(C)OC(=O)c1cc(O)c(O)c(O)c1", "reading": 1.54}
{"compound": "OCCCCCc1cccnc1", "reading": 1.41}

---

Each entry belongs to exactly one class, chosen by where its logP falls: bin 0 = under 1, bin 1 = from 1 up to 2, bin 2 = 2 and over

{"molecule": "Cc1cccc(OC(=O)CNC(=O)c2ccccc2)c1", "assigned.label": "bin 2"}
{"molecule": "CCOC(=O)C(=Cc1c(Cl)cccc1Cl)C(C)=O", "assigned.label": "bin 2"}
{"molecule": "CN(C)N=Nc1ccc(C(N)=O)cc1", "assigned.label": "bin 1"}
{"molecule": "CC(C)(C)c1ccc([N+](=O)[O-])cc1", "assigned.label": "bin 2"}
{"molecule": "CCn1cc(C(=O)O)c(=O)c2cnc(N3CCNCC3)nc21", "assigned.label": "bin 0"}
{"molecule": "CN(C(=O)c1ccccc1)c1ccccc1", "assigned.label": "bin 2"}
{"molecule": "CNc1nc2c3cccnc3ccc2n1C", "assigned.label": "bin 1"}
{"molecule": "NNC(=O)c1ccnc(N)c1", "assigned.label": "bin 0"}
{"molecule": "CNC(=O)Oc1ccc(OC)cc1", "assigned.label": "bin 1"}
{"molecule": "Cc1cc(C)c(C)cc1C", "assigned.label": "bin 2"}
{"molecule": "Nc1ccc(F)c(Cl)c1", "assigned.label": "bin 2"}
{"molecule": "COC(=O)C1=CCCN(C)C1", "assigned.label": "bin 0"}
{"molecule": "NS(=O)(=O)c1cccc(S(N)(=O)=O)c1", "assigned.label": "bin 0"}
{"molecule": "CCCCC(=O)O", "assigned.label": "bin 1"}
{"molecule": "CCCCCCC(NC(C)=O)C(=O)OC (stereo unspecified)", "assigned.label": "bin 1"}
{"molecule": "COc1cc(O)cc(OC)c1", "assigned.label": "bin 1"}
{"molecule": "COc1ccccc1Oc1ccccc1", "assigned.label": "bin 2"}
{"molecule": "C=CCCC=C", "assigned.label": "bin 2"}
{"molecule": "O=C(Nc1ccc(Cl)c(Cl)c1)C1CC1", "assigned.label": "bin 2"}
{"molecule": "O=C(NC(CO)C(O)c1ccc([N+](=O)[O-])cc1)C(Br)Br (stereo unspecified)", "assigned.label": "bin 1"}
{"molecule": "NCCCc1cccnc1", "assigned.label": "bin 0"}
{"molecule": "Cn1ccc(=O)[nH]c1=O", "assigned.label": "bin 0"}
{"molecule": "CCCCNC(=O)NO", "assigned.label": "bin 0"}
{"molecule": "COc1ccc(CO)cc1", "assigned.label": "bin 1"}
